Overview of reported Growth Rate across a group of compounds:
# System: U2OS
# protocol-notes: Incucyte cell viability with U2OS; note: filed as whole numbers so only -1 and 0 and 1 occur
# Assay type: toxicity, cell-based
# condition-summary: human, 24 h, 10 µM, compound concentration 10 uM, replicate number 2, timepoint 24 hours
reported-property: Growth Rate

[[record]]
compound = "COc1cc(-c2cn([C@H]3CCc4c(F)cccc4N(CC(F)(F)F)C3=O)nn2)ccc1-n1cnc(C)c1"
result_number = 1

[[record]]
compound = "O=C(O)[C@@H]1[C@@H](Cn2nnc3ccccc3c2=O)CC[C@H]1C(=O)c1ccc(OCCC2CCOCC2)cc1 [BAY-694]"
result_number = 0

[[record]]
compound = "CCCc1nc2c(C)cc(-c3nc4ccccc4n3C)cc2n1Cc1ccc(-c2ccccc2C(=O)O)cc1"
result_number = 0

[[record]]
compound = "CN1CCN(CCOc2cc(OC3CCOCC3)c3c(Nc4c(Cl)ccc5c4OCO5)ncnc3c2)CC1 [SARACATINIB]"
result_number = 1

[[record]]
compound = "CCCCN1CCC(COC(=O)c2cc(Cl)c(N)c3c2OCCO3)CC1.Cl"
result_number = 0

[[record]]
compound = "O=C(NCc1ncc(C(F)(F)F)cc1Cl)c1ccc2c(c1)C1(CCS(=O)(=O)CC1)[C@H](C1CC1)N2S(=O)(=O)c1ccc(F)cc1 [BAY-784]"
result_number = 1

[[record]]
compound = "CN(C)C(=O)/C(C#N)=C/c1ccc(-c2nc3cnc4[nH]ccc4c3n2C2CCCCC2)o1"
result_number = 1

[[record]]
compound = "C=C1/C(=C\\C=C2/CCC[C@]3(C)[C@@H]([C@H](C)/C=C/C=C/C(O)(CC)CC)CC[C@@H]23)C[C@@H](O)C[C@@H]1O [SEOCALCITOL]"
result_number = 0

[[record]]
compound = "O=C(NCCN1CCOCC1)c1ccc2c(c1)C(=O)c1ccc(Nc3ccc(F)c(NC(=O)c4ccccc4)c3)cc1CC2 [FS-694]"
result_number = 1

[[record]]
compound = "CN([C@@H]1CCc2c(CC(=O)O)c3ccccc3n2C1)S(=O)(=O)c1ccc(F)cc1 [MK-7246]"
result_number = 1


Where these numbers come from: ChEMBL document CHEMBL4689842
